Reference source: patent US11844846B2

Biological target: Aβ PFFs (Homo sapiens, UniProt P05067)
Sequence (P05067 672-713 limits assumed): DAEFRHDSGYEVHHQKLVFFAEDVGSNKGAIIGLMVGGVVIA
quantity: Kd

In: Given the entry Cc1cc2nc(/C=C/c3ccc(O)c(Br)c3)sc2cc1N(C)C [EU-005-02B] , what Kd was observed with Aβ PFFs (Homo sapiens, UniProt P05067)?
Out: 850 nM

---

Assay: F0502B in vivo PK study and B/P ratios
Parameters: species or system mouse
Settings: mouse, plasma, iv; mice, i.v. 5 mg/kg; read-out: half-life t1/2 (converted)
quantity: half-life (h)
Give the quantity in h, number only.

In: half-life lookup needed for Cc1cc2nc(/C=C/c3ccc(O)c(Br)c3)sc2cc1N(C)CCOCCF [F0502B] , thanks.
Out: 1.16

---

Test: plasma-brain ratio study / in vivo PK of EU compounds
Set-up: species or system mouse
Conditions: male, ICH, mouse, brain, iv, 5 mg/kg, Male ICH Mouse, 5 mg/kg IV, 1.00 h; read-out: B/P Mean
Method: To address whether the selected compounds penetrate the brain, a plasma-brain ratio study was performed with EU04-03A, EU05-02A and EU05-02B. To test whether these compounds are brain permeable in vivo, in vivo PK profiling was conducted to determine brain exposure.
quantity: Kp at 1 h

In: Kp at 1 h lookup needed for Cc1cc2nc(/C=C/c3ccc(O)c(Br)c3)sc2cc1N(C)C [EU-005-02B] , thanks.
Out: 4.44

---

Assay: plasma-brain ratio study / in vivo PK of EU compounds
Set-up: species or system mouse
Conditions: male, ICR, mouse, brain, iv, 5 mg/kg, Male ICR Mouse, 5 mg/kg IV, 1.00 h; read-out: B/P Mean
quantity: Kp at 1 h
Keep the answer to the number alone.

In: Kp at 1 h lookup needed for COc1cc(/C=C/c2nc3cc(C)c(N(C)C)cc3s2)ccc1O [EU-005-02A] , thanks.
Out: 0.41

---

Biological target: Lewy bodies in α-Syn A53T virus injected WT mice brain slices (Homo sapiens, UniProt P37840, A53T)
Construct: from tissue; host or cells: brain (substantia nigra) of wild-type mice injected with α-Syn A53T virus
Assay: staining of mouse brain slices with Lewy bodies
Format: binding
quantity: staining of Lewy bodies (p-α-Syn S129 positive)

COc1cc(/C=C/c2nc3cc(C)c(N(C)C)cc3s2)ccc1O [EU-005-02A]
signals were very weak
COc1cc(/C=C/c2nc3ccc(N(C)C)cc3s2)ccc1O [EU-004-02A]
signals were very weak

---

Assay: F0502B in vivo PK study and B/P ratios
Set-up: species or system mouse
Conditions: mouse, brain, iv; mice, i.v. 5 mg/kg, 0.5 h; read-out: B/P ratio
quantity: Kp at 0.5 h
Keep the answer to the number alone.

In: Kp at 0.5 h lookup needed for Cc1cc2nc(/C=C/c3ccc(O)c(Br)c3)sc2cc1N(C)CCOCCF [F0502B] , thanks.
Out: 4.16

---

Assay: plasma-brain ratio study / in vivo PK of EU compounds
Set-up: species or system mouse
Conditions: male, ICH, mouse, brain, iv, 5 mg/kg, Male ICH Mouse, 5 mg/kg IV, 0.50 h; read-out: B/P Mean
quantity: Kp at 0.5 h
Keep the answer to the number alone.

In: Kp at 0.5 h lookup needed for Cc1cc2nc(/C=C/c3ccc(O)c(Br)c3)sc2cc1N(C)C [EU-005-02B] , thanks.
Out: 1.88
